From: the supplement of paper PMC6757056

// values below are reported normalized RNA/DNA level without ligand (log10)
B1: library; a variant is named by its letters at N, in order (parent)
chain: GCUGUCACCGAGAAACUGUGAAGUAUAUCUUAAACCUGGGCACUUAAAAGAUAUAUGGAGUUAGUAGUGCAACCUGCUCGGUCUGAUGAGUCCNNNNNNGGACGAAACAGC

Variants of: B1
method_description: normalized RNA/DNA level without ligand (relative to sTRSVctl = 100) (log10 (% of sTRSVctl)); HEK293T; ligand: cyclic di-GMP (c-di-GMP-II aptamer); higher = less ribozyme self-cleavage, higher mRNA level
experimental_context: reporter: mCherry (pCS4076), ligand present: no
# output: bare number, no unit

Consider the reported normalized RNA/DNA level without ligand (log10) for these variants:
GAGGGC 1.66
AAGCGG 1.81
CGGUGC 1.78
UAGUUC 1.71
UCGUGA 1.47

Incoming: For the variant shown here, UGAUGU , give the reported normalized RNA/DNA level without ligand (log10).
Outgoing: 1.63

Incoming: For the variant shown here, AUAUUA , give the reported normalized RNA/DNA level without ligand (log10).
Outgoing: 1.56

Incoming: For the variant shown here, CUAGAC , give the reported normalized RNA/DNA level without ligand (log10).
Outgoing: 1.67

Incoming: For the variant shown here, GGCGAG , give the reported normalized RNA/DNA level without ligand (log10).
Outgoing: 1.56

Incoming: For the variant shown here, ACAGUC , give the reported normalized RNA/DNA level without ligand (log10).
Outgoing: 1.62

Incoming: For the variant shown here, AGCCCA , give the reported normalized RNA/DNA level without ligand (log10).
Outgoing: 1.84
